assayInfo: in vivo
condition: mouse, sc
The following compounds are shown together with reported LD50 at 360 h values.

>>> obsvalue("CCC(=O)C(CC(C)N(C)C)(c1ccccc1)c1ccccc1 (centres unmarked)")
"53.5 mg/kg"

Now look at this one.
Any idea what its LD50 at 360 h is? The compound is CCCN(CCC)C(=O)C(CCC(=O)O)NC(=O)c1ccccc1 (racemic) [Proglumide]
> 5000 mg/kg
